target: T1, human MSLN-R3-his protein (human, UniProt Q13421 487-598); test: ELISA on coated antigen, antibody 0.002 nM
T1 construct: it is put last here; also called human MSLN-R3 protein; hMSLN-R3-his; not shown: His tag
T1 sequence (Q13421 495-606): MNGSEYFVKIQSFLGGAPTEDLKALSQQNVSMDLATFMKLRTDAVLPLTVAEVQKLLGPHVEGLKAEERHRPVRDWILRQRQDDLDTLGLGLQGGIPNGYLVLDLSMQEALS
# OD450 listing for each entry below
Supply the numeric figure in OD, leaving out any unit text.

S009-F7.69.8 (antibody, human IgG1, kappa, V domains shown, Human-murine chimeric antibody, human IgG1 heavy and kappa light constant regions) VH: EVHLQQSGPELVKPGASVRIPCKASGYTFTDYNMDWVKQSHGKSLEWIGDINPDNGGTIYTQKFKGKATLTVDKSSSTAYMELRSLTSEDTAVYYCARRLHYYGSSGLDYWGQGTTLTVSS VL: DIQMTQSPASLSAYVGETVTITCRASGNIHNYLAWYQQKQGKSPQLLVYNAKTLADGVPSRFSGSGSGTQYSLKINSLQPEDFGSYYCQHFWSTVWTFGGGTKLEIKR
0.11

Request: Which measured OD450 value corresponds to S009-F7.33.24 (antibody, human IgG1, kappa, V domains shown, Human-murine chimeric antibody, human IgG1 heavy and kappa light constant regions) VH: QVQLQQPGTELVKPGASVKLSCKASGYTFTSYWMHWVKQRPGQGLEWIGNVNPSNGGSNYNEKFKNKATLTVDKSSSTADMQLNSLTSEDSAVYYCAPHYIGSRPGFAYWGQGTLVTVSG VL: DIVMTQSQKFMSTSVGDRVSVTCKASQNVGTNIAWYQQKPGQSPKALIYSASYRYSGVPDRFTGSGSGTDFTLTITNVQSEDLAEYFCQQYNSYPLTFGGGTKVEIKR ?
Response: 1.04

Request: Which measured OD450 value corresponds to S009-F7.2.3 (antibody, human IgG1, kappa, V domains shown, Human-murine chimeric antibody, human IgG1 heavy and kappa light constant regions) VH: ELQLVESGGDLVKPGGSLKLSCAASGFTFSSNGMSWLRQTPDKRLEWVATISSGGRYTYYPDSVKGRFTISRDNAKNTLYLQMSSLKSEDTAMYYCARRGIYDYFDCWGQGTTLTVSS VL: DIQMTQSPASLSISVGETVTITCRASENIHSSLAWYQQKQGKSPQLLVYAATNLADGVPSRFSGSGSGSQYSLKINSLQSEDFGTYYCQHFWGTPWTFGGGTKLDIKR ?
Response: 0.06

Data credit: patent US20250250357A1
